Each recorded value in this set is attributed to the Immune Epitope Database (IEDB).

target.of.assay: HLA-A*68:02
assay.notes: IEDB peptide-MHC binding, purified MHC/competitive/fluorescence; filed as Kd, often an IC50 or EC50 that approximates it; bounds were set here for any values at or beyond the usual limits of such assays
measurement.context: source organism: Vibrio vulnificus YJ016
pKd: −log10 of the molar value.
property: pKd

- biopolymer.sequence: "DFISMYFPW"
  reported.result: "≤ 4.70"

---

target.of.assay: HLA-B*15:01
assay.notes: IEDB peptide-MHC binding, purified MHC/competitive/radioactivity; filed as Kd, often an IC50 or EC50 that approximates it; bounds were set here for any values at or beyond the usual limits of such assays
measurement.context: source organism: Dengue virus 4 Philippines/H241/1956
pKd: −log10 of the molar value.
Listing of entries alongside the reported pKd.

- biopolymer.sequence: "HTTERGGKAY"
  target.of.assay: "HLA-B*15:01"
  pKd: 7.30
- biopolymer.sequence: "FSQHNYRQGY"
  target.of.assay: "HLA-B*15:01"
  pKd: 6.87
- biopolymer.sequence: "ILLKMVTHF"
  target.of.assay: "HLA-B*15:01"
  pKd: 8.76
- biopolymer.sequence: "AVHQVFGSVY"
  target.of.assay: "HLA-B*15:01"
  pKd: 8.96
